- Target Desc: Mushroom Tyrosinase (mushroom)
- Assay Summary: cell-based or functional assay
Observed Property: % INHIBITION TYROSINASE (%)
Number in %, nothing else.

Notebook: ISLLDAQS (HELM PEPTIDE1{[ac].I.S.L.L.D.[dA].Q.S.[am]}$$$$V2.0; SMILES CC[C@H](C)[C@H](NC(C)=O)C(=O)N[C@@H](CO)C(=O)N[C@@H](CC(C)C)C(=O)N[C@@H](CC(C)C)C(=O)N[C@@H](CC(=O)O)C(=O)N[C@H](C)C(=O)N[C@@H](CCC(N)=O)C(=O)N[C@@H](CO)C(N)=O) [Ac-Ile-Ser-Leu-Leu-Asp-(d)Ala-Gln-Ser-NH2] , % INHIBITION TYROSINASE read as 31
